Numbers sourced from ChEMBL document CHEMBL1134061.

Assignment: determine reported Relative potency for the given molecules.
- Measurement target: 3-hydroxy-3-methylglutaryl-coenzyme A reductase (Homo sapiens)
- Protocol notes: In vitro HMG-CoA reductase inhibitory activity required to inhibit cellular steroidgenesis in Hep G2 cells (human hepatoma cell line) with pravastatin as reference compound
- Assay type: cell-based
- Settings: HepG2
Reply: number alone, nothing else.

Q) Quick check: Relative potency of CCc1c(C)sc2nc(C(C)C)c(/C=C/[C@@H](O)C[C@@H](O)CC(=O)O)c(-c3ccc(F)cc3)c12 ?
A) 51

Q) Item under review: Cc1nn(C)c2nc(C(C)C)c(/C=C/[C@@H](O)C[C@@H](O)CC(=O)O)c(-c3ccc(F)cc3)c12 . Reported Relative potency?
A) 15

Q) Please look up its Relative potency: COc1ccc(-n2nc(C)c3c(-c4ccc(F)cc4)c(/C=C/[C@@H](O)C[C@@H](O)CC(=O)O)c(C(C)C)nc32)cc1
A) 149

Q) # lookup: Relative potency of Cc1c2c(-c3ccc(F)cc3)c(/C=C/[C@@H](O)C[C@@H](O)CC(=O)O)c(C(C)C)nc2nn1-c1ccccc1
A) 12

Q) I would be grateful if you could share the reported Relative potency for Cc1cc2nc(C(C)C)c(/C=C/[C@@H](O)C[C@@H](O)CC(=O)O)c(-c3ccc(F)cc3)n2n1 .
A) 3

====

- Measurement target: 3-hydroxy-3-methylglutaryl-coenzyme A reductase (Homo sapiens) (UniProt P04035)
- Sequence (whole entry): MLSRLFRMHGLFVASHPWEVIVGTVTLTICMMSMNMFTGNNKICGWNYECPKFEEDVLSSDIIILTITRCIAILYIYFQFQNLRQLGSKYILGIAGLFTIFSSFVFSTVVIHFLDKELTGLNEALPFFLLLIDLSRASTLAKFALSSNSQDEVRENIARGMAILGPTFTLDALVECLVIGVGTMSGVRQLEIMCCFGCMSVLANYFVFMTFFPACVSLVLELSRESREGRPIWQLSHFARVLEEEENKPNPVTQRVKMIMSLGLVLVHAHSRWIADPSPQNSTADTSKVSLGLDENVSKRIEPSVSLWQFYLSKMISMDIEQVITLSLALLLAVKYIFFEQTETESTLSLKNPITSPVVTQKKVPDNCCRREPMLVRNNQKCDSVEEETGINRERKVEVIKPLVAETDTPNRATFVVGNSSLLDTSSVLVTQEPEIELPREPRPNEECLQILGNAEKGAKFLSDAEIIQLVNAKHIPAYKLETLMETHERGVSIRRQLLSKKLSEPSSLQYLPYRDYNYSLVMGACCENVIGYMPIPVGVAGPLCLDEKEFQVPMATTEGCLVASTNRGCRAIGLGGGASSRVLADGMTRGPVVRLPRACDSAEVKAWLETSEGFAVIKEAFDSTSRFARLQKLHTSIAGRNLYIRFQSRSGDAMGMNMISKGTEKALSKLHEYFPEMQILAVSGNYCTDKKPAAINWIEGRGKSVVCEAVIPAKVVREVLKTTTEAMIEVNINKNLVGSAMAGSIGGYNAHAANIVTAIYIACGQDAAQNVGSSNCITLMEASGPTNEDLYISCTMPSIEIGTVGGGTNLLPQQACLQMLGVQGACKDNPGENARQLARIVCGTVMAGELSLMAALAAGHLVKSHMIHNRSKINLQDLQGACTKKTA
- Protocol notes: In vitro HMG-CoA reductase inhibitory activity required to inhibit cellular steroidgenesis in Hep G2 cells (human hepatoma cell line) with pravastatin as reference compound
- Assay type: cell-based
- Settings: HepG2
Each entry falls into one class according to its Relative potency; the ranges are small value = under 2, mid value = from 2 up to 20, large value = 20 and over

Q) Sort into band: Cc1nn(C(C)(C)C)c2nc(C(C)C)c(/C=C/[C@@H](O)C[C@@H](O)CC(=O)O)c(-c3ccc(F)cc3)c12
A) large value

Q) In plain terms, what class is CC(C)c1nc2onc(-c3ccccc3)c2c(-c2ccc(F)cc2)c1/C=C/[C@@H](O)C[C@@H](O)CC(=O)O ?
A) small value

Q) Into which bin does this compound go? CC(C)c1nc2c(c(-c3ccc(Cl)cc3)nn2C)c(-c2ccc(F)cc2)c1/C=C/[C@@H](O)C[C@@H](O)CC(=O)O
A) large value

Q) In plain terms, what class is CC(C)c1nc2c(cnn2-c2ccccc2)c(-c2ccc(F)cc2)c1/C=C/[C@@H](O)C[C@@H](O)CC(=O)O ?
A) mid value

Q) Which Relative potency category applies to Cc1nn(Cc2ccccc2)c2nc(C(C)C)c(/C=C/[C@@H](O)C[C@@H](O)CC(=O)O)c(-c3ccc(F)cc3)c12 here?
A) mid value

Q) Kindly state the category for this compound: CC(C)c1nc2sc3c(c2c(-c2ccc(F)cc2)c1/C=C/[C@@H](O)C[C@@H](O)CC(=O)O)CCC3
A) large value

Q) GET /class?item= Cc1nn2c(-c3ccc(F)cc3)c(/C=C/[C@@H](O)C[C@@H](O)CC(=O)O)c(C3CC3)nc2c1-c1ccccc1
A) mid value

Q) Assign a bin to Cc1nn(C(C)(C)C)c2nc(C3CC3)c(/C=C/[C@@H](O)C[C@@H](O)CC(=O)O)c(-c3ccc(F)cc3)c12
A) mid value

Q) Hi, small favor: classify Cc1noc2nc(C(C)C)c(/C=C/[C@@H](O)C[C@@H](O)CC(=O)O)c(-c3ccc(F)cc3)c12 by its Relative potency when you get a moment.
A) small value

Q) Which of the defined bands does the recorded Relative potency of O=C(O)C[C@H](O)C[C@H](O)/C=C/c1c(C2CC2)nc2sccc2c1-c1ccc(F)cc1 sit within?
A) large value

Q) Band assignment needed for CC(C)c1cc2nc(C3CC3)c(/C=C/[C@@H](O)C[C@@H](O)CC(=O)O)c(-c3ccc(F)cc3)n2n1 please.
A) small value

====

For each entry below, report its Relative potency value.
- Measurement target: 3-hydroxy-3-methylglutaryl-coenzyme A reductase (Homo sapiens) (UniProt P04035)
- Sequence (whole entry): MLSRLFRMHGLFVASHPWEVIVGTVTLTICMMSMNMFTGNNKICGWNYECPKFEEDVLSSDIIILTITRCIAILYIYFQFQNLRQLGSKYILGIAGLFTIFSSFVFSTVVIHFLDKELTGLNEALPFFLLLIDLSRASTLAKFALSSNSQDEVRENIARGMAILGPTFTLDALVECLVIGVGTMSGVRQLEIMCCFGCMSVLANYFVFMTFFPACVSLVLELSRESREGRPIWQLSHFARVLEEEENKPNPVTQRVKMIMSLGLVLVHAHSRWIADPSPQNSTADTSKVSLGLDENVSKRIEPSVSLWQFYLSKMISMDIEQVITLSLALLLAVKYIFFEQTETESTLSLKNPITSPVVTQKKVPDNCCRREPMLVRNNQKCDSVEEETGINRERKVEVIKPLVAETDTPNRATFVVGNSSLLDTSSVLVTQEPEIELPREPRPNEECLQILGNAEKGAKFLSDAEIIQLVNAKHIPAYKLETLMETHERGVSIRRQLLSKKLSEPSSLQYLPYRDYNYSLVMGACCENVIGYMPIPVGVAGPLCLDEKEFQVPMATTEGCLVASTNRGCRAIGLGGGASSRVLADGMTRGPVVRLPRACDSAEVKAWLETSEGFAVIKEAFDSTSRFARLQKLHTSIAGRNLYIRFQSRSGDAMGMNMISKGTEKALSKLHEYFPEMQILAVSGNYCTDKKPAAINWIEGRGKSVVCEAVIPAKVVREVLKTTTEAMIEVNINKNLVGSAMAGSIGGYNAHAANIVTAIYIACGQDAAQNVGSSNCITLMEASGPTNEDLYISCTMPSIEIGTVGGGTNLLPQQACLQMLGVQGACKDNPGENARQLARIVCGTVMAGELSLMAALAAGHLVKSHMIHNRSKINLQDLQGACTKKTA
- Protocol notes: In vitro HMG-CoA reductase inhibitory activity required to inhibit cellular steroidgenesis in Hep G2 cells (human hepatoma cell line) with pravastatin as reference compound
- Type: cell-based
- Settings: HepG2
Respond with the number and no other words.

Q) Entry CCc1c(C)sc2nc(C3CC3)c(/C=C/[C@@H](O)C[C@@H](O)CC(=O)O)c(-c3ccc(F)cc3)c12 : reported Relative potency = ?
A) 38

Q) Query: Relative potency; subject: CC(C)c1nc2c(c(C3CC3)nn2C)c(-c2ccc(F)cc2)c1/C=C/[C@@H](O)C[C@@H](O)CC(=O)O
A) 1

Q) Query (molecule): Cc1nn(-c2ccccn2)c2nc(C3CC3)c(/C=C/[C@@H](O)C[C@@H](O)CC(=O)O)c(-c3ccc(F)cc3)c12 ; field requested: Relative potency
A) 4

Q) Recorded Relative potency for CCn1ncc2c(-c3ccc(F)cc3)c(/C=C/[C@@H](O)C[C@@H](O)CC(=O)O)c(C(C)C)nc21 , please?
A) 39

Q) What value of Relative potency has been reported for the following molecule? Cc1nn2c(-c3ccc(F)cc3)c(/C=C/[C@@H](O)C[C@@H](O)CC(=O)O)c(C3CC3)nc2c1C
A) 3

Q) Look up Relative potency: CC(C)c1nc2cc(-c3ccccc3)nn2c(-c2ccc(F)cc2)c1/C=C/[C@@H](O)C[C@@H](O)CC(=O)O
A) 3

Q) Relative potency lookup needed for CC(C)c1nc2sc(-c3ccccc3)cc2c(-c2ccc(F)cc2)c1/C=C/[C@@H](O)C[C@@H](O)CC(=O)O , thanks.
A) 1
